The origin of these recorded values is patent US8829029B2.

Dear all, this message contains Ki results, target or system human 5-HT2A serotonin receptor (Homo sapiens (Human)).
Output spec: scalar in nM, unitless text.

// solved cases for Ki follow
CN(C)c1ccc(C(=O)N[C@H]2CC[C@H](CCN3CCC(c4noc5cc(F)ccc45)CC3)CC2)cc1
11.4
O=C(N[C@H]1CC[C@H](CCN2CCC(c3noc4cc(F)ccc34)CC2)CC1)c1ccc(N2CCOCC2)nc1
2.7
O=S(=O)(N[C@H]1CC[C@H](CCN2CCC(c3noc4cc(F)ccc34)CC2)CC1)c1ccc(Cl)cc1
5.13

Shifting focus to the molecule that follows.
*Q* Given the entry O=C(Cc1ccc2c(c1)OCO2)N[C@H]1CC[C@H](CCN2CCC(c3noc4cc(F)ccc34)CC2)CC1 , report its measured Ki.
*A* 2.09

====

# EXPERIMENTAL SYSTEM: human 5-HT2A serotonin receptor (Homo sapiens (Human), UniProt P28223)
# strict inequality: Ki < 10 nM yields YES, everything else yields NO

CO[C@]1(C)CC[C@H](CC(=O)N[C@H]2CC[C@H](CCN3CCC(c4noc5cc(Cl)ccc45)CC3)CC2)CC1 [Example 42B]
NO
CC1(O)CCC(CC(=O)N[C@H]2CC[C@H](CCN3CCC(c4noc5cc(Cl)ccc45)CC3)CC2)CC1 (some centres unmarked)
NO
O=C(N[C@H]1CC[C@H](CCN2CCC(c3noc4cc(F)ccc34)CC2)CC1)C1(O)CC1
YES
CC(=O)N[C@H]1CC[C@H](CCN2CCC(c3noc4ccc(F)cc34)CC2)CC1
NO
CO[C@H](C)CC(=O)N[C@H]1CC[C@H](CCN2CCC(c3noc4cc(Cl)ccc34)CC2)CC1 [Example 43A]
NO
O=C(N[C@H]1CC[C@H](CCN2CCC(c3noc4cc(F)ccc34)CC2)CC1)c1ccc(Cl)cc1
YES
O=C(CC1OCCCO1)N[C@H]1CC[C@H](CCN2CCC(c3noc4cc(Cl)ccc34)CC2)CC1
NO
O=C(CO)N[C@H]1CC[C@H](CCN2CCC(c3noc4cc(Cl)ccc34)CC2)CC1
NO

*Q* Hi there! Is Ki for CC(=O)N[C@H]1CC[C@H](CCN2CCC(c3noc4cc(Cl)ccc34)CC2)CC1 below 10 nM, do you know?
*A* NO

*Q* Ki under 10 nM? Item: O=C(N[C@H]1CC[C@H](CCN2CCC(c3noc4cc(F)ccc34)CC2)CC1)C1CCOCC1
*A* YES

*Q* Just wondering, is Ki of O=C(CC1OCCCO1)N[C@H]1CC[C@H](CCN2CCC(c3noc4cc(F)c(F)cc34)CC2)CC1 below 10 nM?
*A* YES

*Q* # strict comparison: is reported Ki < 10 nM? input = CC(=O)N[C@H]1CC[C@H](CCN2CCC(c3noc4cc(F)c(F)cc34)CC2)CC1
*A* NO

*Q* Consider CO[C@]1(C)CC[C@@H](CC(=O)N[C@H]2CC[C@H](CCN3CCC(c4noc5cc(Cl)ccc45)CC3)CC2)CC1 [Example 42A] . Does its Ki lie strictly below 10 nM?
*A* NO

====

# EXPERIMENTAL SYSTEM: human D3 dopamine receptor (Homo sapiens (Human), UniProt P35462)
# Sequence (P35462 whole entry): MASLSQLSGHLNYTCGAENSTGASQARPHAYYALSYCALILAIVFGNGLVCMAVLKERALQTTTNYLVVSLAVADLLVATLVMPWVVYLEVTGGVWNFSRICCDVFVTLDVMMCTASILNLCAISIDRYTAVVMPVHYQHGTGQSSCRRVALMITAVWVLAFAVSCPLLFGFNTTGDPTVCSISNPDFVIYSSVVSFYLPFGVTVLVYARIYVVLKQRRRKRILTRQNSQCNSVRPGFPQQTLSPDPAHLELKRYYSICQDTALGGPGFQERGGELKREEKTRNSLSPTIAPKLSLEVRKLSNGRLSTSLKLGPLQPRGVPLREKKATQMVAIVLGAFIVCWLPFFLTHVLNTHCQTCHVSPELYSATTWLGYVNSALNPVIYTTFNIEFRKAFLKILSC
# EXPERIMENTAL DETAILS: Radioligand binding ([3H]-spiperone) to cloned human D3 receptor expressed in HEK-293 EBNA cells
# CONDITION SET: membranes of transfected HEK-293 EBNA cells, 0.5 nM [3H]-spiperone, 1 h at RT
PROPERTY LABEL: Ki (nM)
Reply with just the number (in nM).

O=C(N[C@H]1CC[C@H](CCN2CCC(c3noc4ccc(F)cc34)CC2)CC1)c1ccc(N2CCS(=O)(=O)CC2)cc1
5.94
CCS(=O)(=O)N[C@H]1CC[C@H](CCN2CCC(c3noc4cc(F)ccc34)CC2)CC1
5.85
O=C(CO)N[C@H]1CC[C@H](CCN2CCC(c3noc4cc(Cl)ccc34)CC2)CC1
16.8
CN(C)c1ccc(C(=O)N[C@H]2CC[C@H](CCN3CCC(c4noc5cc(F)ccc45)CC3)CC2)cc1
11.5
CO[C@]1(C)CC[C@@H](CC(=O)N[C@H]2CC[C@H](CCN3CCC(c4noc5cc(Cl)ccc45)CC3)CC2)CC1 [Example 42A]
6
O=C(CC1CC1)N[C@H]1CC[C@H](CCN2CCC(c3noc4cc(Cl)ccc34)CC2)CC1
3.21

*Q* Which Ki reading was recorded for the compound O=C(N[C@H]1CC[C@H](CCN2CCC(c3noc4cc(F)ccc34)CC2)CC1)C1CCOCC1 ?
*A* 9.74

*Q* Given the entry O=C(N[C@H]1CC[C@H](CCN2CCC(c3noc4cc(F)ccc34)CC2)CC1)c1ccc(N2CCOCC2)nn1 , report its measured Ki.
*A* 25.3

*Q* Any idea what its Ki is? The compound is CC(=O)N[C@H]1CC[C@H](CCN2CCC(c3noc4cc(Cl)ccc34)CC2)CC1
*A* 8.19

*Q* Need Ki of O=C(CO)N[C@H]1CC[C@H](CCN2CCC(c3noc4cc(F)c(F)cc34)CC2)CC1 , thanks.
*A* 19.9

*Q* // lookup Ki for CO[C@H]1CC[C@H](CC(=O)N[C@H]2CC[C@H](CCN3CCC(c4noc5ccc(Cl)cc45)CC3)CC2)CC1
*A* 8.38

*Q* What does the record list as Ki for COCCC(=O)N[C@H]1CC[C@H](CCN2CCC(c3noc4cc(Cl)c(F)cc34)CC2)CC1 ?
*A* 13.5

*Q* # Ki lookup, item C[C@@H](O)CC(=O)N[C@H]1CC[C@H](CCN2CCC(c3noc4cc(Cl)ccc34)CC2)CC1
*A* 17

*Q* Entry under review: CC1(O)CCC(CC(=O)N[C@H]2CC[C@H](CCN3CCC(c4noc5cc(Cl)ccc45)CC3)CC2)CC1 (some centres unmarked) . Reported Ki?
*A* 7

*Q* What value of Ki has been recorded for this entry: CC(=O)N[C@H]1CC[C@H](CCN2CCC(c3noc4cc(F)c(F)cc34)CC2)CC1
*A* 11.4

*Q* // returns reported Ki for input COC1(C)CCC(CC(=O)N[C@H]2CC[C@H](CCN3CCC(c4noc5cc(Cl)ccc45)CC3)CC2)CC1 (some centres unmarked)
*A* 8

*Q* Would you kindly share the measured Ki for O=C(Cc1ccc2c(c1)OCO2)N[C@H]1CC[C@H](CCN2CCC(c3noc4cc(F)ccc34)CC2)CC1 ?
*A* 4.02

*Q* Find the recorded Ki belonging to O=C(N[C@H]1CC[C@H](CCN2CCC(c3noc4cc(F)ccc34)CC2)CC1)c1ccc(N2CCCCC2)cc1 and report it.
*A* 8.69

*Q* Returns the measured Ki for the input compound. Input: O=C(N[C@H]1CC[C@H](CCN2CCC(c3noc4cc(F)ccc34)CC2)CC1)c1cnc(N2CCOCC2)cn1
*A* 19.4

*Q* // lookup Ki for O=C(N[C@H]1CC[C@H](CCN2CCC(c3noc4cc(F)c(F)cc34)CC2)CC1)C1CCOCC1
*A* 18.2

*Q* // Ki lookup, key: CC1CN(c2ccc(C(=O)N[C@H]3CC[C@H](CCN4CCC(c5noc6ccc(F)cc56)CC4)CC3)cc2)CC(C)O1 (some centres unmarked)
*A* 85.8
